- EXPERIMENTAL SYSTEM: T1, hCD112R mFC recombinant protein (human; murine, UniProt Q6DKI7 41-160)
- T1 construct: range 41-160; expressed in 293E cells; also called hCD112R ECD mFC; hCD112R-ECD-mFC; not shown: murine IgG2a Fc domain (MX2-mFc vector)
- T1 sequence (looked up): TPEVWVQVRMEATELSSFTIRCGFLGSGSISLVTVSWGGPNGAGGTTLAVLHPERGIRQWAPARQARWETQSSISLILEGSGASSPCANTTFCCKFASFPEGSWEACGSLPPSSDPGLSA
- PROTOCOL SUMMARY: FACS competition, hCD112R mFc on CHO CD112 cells
Collected IC50 values appear next to each entry.
Give just the number in µg/mL; leave the unit off.

{"BINDER": "Hu1 (antibody, IgG4, V domains shown, humanized IgG4; also called Hu-01) VH: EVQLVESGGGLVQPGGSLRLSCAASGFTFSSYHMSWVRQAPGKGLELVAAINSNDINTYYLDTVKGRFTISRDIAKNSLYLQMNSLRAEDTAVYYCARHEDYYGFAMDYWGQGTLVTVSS VL: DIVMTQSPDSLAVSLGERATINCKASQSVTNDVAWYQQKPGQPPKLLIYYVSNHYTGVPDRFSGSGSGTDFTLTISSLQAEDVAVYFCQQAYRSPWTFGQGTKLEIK", "NUMBER": 4.31}
{"BINDER": "Hu6 (antibody, IgG4, V domains shown, humanized IgG4; also called Hu-06) VH: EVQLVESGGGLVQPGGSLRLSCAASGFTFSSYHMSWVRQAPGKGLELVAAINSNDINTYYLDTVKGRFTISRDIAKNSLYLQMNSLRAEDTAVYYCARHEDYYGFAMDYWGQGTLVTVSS VL: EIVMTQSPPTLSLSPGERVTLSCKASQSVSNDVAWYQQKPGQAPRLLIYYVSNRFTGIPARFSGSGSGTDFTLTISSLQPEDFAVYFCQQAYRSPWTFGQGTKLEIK", "NUMBER": 4.46}

For the binder Hu29 (antibody, IgG4, V domains shown, humanized IgG4) VH: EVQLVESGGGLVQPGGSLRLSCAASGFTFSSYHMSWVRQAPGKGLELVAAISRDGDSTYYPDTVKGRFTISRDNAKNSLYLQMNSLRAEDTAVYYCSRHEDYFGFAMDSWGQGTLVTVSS VL: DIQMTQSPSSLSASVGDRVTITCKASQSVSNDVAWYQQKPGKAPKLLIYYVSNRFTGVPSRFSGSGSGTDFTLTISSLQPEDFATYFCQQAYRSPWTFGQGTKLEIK , what IC50 is on record?
3.67

For the binder Hu11 (antibody, IgG4, V domains shown, humanized IgG4) VH: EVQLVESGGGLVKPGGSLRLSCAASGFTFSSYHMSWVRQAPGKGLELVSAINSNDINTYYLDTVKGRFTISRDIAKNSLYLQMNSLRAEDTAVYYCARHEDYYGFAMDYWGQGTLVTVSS VL: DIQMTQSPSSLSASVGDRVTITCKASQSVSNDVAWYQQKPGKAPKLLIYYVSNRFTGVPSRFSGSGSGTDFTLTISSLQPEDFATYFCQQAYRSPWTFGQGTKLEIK , what IC50 is on record?
4.34

For the binder Hu12 (antibody, IgG4, V domains shown, humanized IgG4) VH: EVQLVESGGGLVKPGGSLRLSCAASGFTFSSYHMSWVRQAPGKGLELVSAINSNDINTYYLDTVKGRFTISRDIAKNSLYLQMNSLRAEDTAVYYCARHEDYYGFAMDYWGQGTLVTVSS VL: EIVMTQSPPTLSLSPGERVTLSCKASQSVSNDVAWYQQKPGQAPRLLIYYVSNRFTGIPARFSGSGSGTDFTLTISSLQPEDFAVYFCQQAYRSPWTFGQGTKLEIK , what IC50 is on record?
4.18
